Measured melting point of individual entries
Result type: melting point

{"columns": ["Molecule", "Experimental result"],
 "data": [
  ["CCn1ncc2c(C(F)(F)F)cc(=O)[nH]c21", "178 to 179 °C"],
  ["O=C(O)c1cccc([N+](=O)[O-])c1Nc1ccc(Br)cc1", "194 to 196 °C"],
  ["CN(C)c1ccc(OCC(=O)c2cccc(Cl)c2)cc1", "69 to 70 °C"],
  ["CCOc1ccc(-c2nc(-c3cccc(C(=O)O)c3)cs2)cc1OCC", "192 to 193 °C"],
  ["OC1CCCCC1n1c(NC2CC2)nc2cc(Cl)c(Cl)cc21 (stereo unspecified)", "149 to 151 °C"],
  ["Cc1ccc(S(=O)(=O)NC(C)(C)C(C)C)cc1", "80 to 89 °C"]
]}

###

Measured melting point of individual entries

{"columns": ["Molecule", "melting point"],
 "data": [
  ["Cc1cc2c(cc1C)[C@@H](O)[C@H](CN1CCC3(CC1)C(=O)NCN3c1ccccc1)CC2 (relative stereo)", "232 to 233 °C"],
  ["C=CC(c1ccc(C(C)C)cc1)c1c(C)c(NC=O)c(C)c(C)c1O (stereo not given)", "170 to 171 °C"],
  ["CCn1nnc(C(C=O)=C(c2ccc(F)cc2)c2ccc(F)cc2)n1", "138 to 139 °C"],
  ["COc1ccc2sc(C(=O)Oc3ccccc3)c(Oc3ccccc3)c2c1", "198 °C"],
  ["O=C(O)C(=O)c1cccc(OCc2ccccc2Cl)c1OCc1ccccc1Cl", "116 to 118 °C"]
]}

###

Measured melting point of individual entries

{"columns": ["Compound", "melting point"],
 "data": [
  ["CCCc1nnc2ccc(-c3ccc(C(F)(F)F)cc3)nn12", "173 to 175 °C"],
  ["CCOC(=O)C1=C(N)NC(N)=C(C(=O)OCC)C1c1ccccc1", "139 °C"],
  ["CSCC(C)(C)NC(=O)c1c(NC(=O)c2cc(C(F)(F)F)nn2-c2ncccc2Cl)ccc2cn[nH]c12", "100 to 105 °C"],
  ["COc1ccc(-n2nc(C(=O)CCCO[N+](=O)[O-])cc2-c2ccc(S(C)(=O)=O)cc2)cc1", "132 to 134 °C"],
  ["CC(C)(C)OC(=O)N1CCC(c2nc3cc(-c4ccc(-n5cnnn5)c(F)c4)ccc3o2)CC1", "154 to 159 °C"],
  ["CC1CCC2(OC1)OC1CC3C4CCC5CC(OCCO)CCC5(C)C4CCC3(C)C1C2C (stereo not drawn)", "207 to 208 °C"],
  ["CC(=NO)c1cccc(NC(=O)NC2N=C(c3ccccc3F)c3cccc(C)c3N(CC(=O)N3CC4CCC(CC4)C3)C2=O)c1 (stereo not drawn)", "199 to 208 °C"],
  ["CCC(=O)Nc1c(C(=O)c2cccc(Cl)c2)[nH]c2cc(Cl)ccc12", "129 to 130 °C"]
]}

###

Measured melting point of individual entries

{"columns": ["Molecule", "melting point"],
 "data": [
  ["Cc1ccc(S(=O)(=O)N2c3ccc(Cl)cc3C(O)(c3ccccc3Cl)C2C(=O)N(C)C)cc1 (stereo not given)", "220 to 221 °C"],
  ["CCOC(=O)CSc1nccc(NCCc2ccc(Cl)cc2)n1", "58 to 61 °C"],
  ["COC(=O)c1ccc(NC2CCCCC2)cc1C(=O)OC", "217 to 219 °C"],
  ["Cc1c(CO)nc2c(NC(=O)C(C)(C)C)cccn12", "186 to 187 °C"],
  ["Cc1nn(C2CCCCC2)c(N)c1C(N)=O", "181 to 182 °C"],
  ["COc1ccc(-c2c(Cl)c(Cn3cncn3)nc3sc4c(c23)CCSC4)cc1", "198 to 200 °C"],
  ["CN(C)CCc1ccc(N)c2[nH]ncc12", "125 °C"],
  ["CCCc1nc(CO)c(C(=O)OCC)n1Cc1ccc(-c2ccccc2-c2nnnn2C(c2ccccc2)(c2ccccc2)c2ccccc2)cc1", "135 to 138 °C"],
  ["CCc1ccc(Nc2c(C(=O)NOC(CO)CO)ccc(F)c2F)c(F)c1", "91 to 93 °C"],
  ["OC1(c2cn(-c3ccc(Br)cc3)nn2)CN2CCC1CC2 (stereo not given)", "214 °C"]
]}
